- target-entity: C-kinase (protein kinase C)
- protocol-text: C-Kinase inhibitory activity test
- Type: biochemical
- particulars: enzyme activity inhibited 50%
C-Kinase inhibitory activity IC50 values for the molecules below.
# unit: µg/mL | format: bare number

molecule	C-Kinase inhibitory activity IC50, µg/mL
CC12OC(CC13COS(=O)O3)n1c3ccccc3c3c4c(c5c6ccccc6n2c5c31)CNC4=O (stereo not drawn)	0.038
C[C@]12O[C@H](C[C@]1(O)C=NNC1=NCCN1)n1c3ccccc3c3c4c(c5c6ccccc6n2c5c31)CNC4=O	0.031

Consider now this further molecule.
C-Kinase inhibitory activity IC50 lookup needed for C[C@]12O[C@H](C[C@]1(O)COC(=O)CCC(=O)O)n1c3ccccc3c3c4c(c5c6ccccc6n2c5c31)CNC4=O (relative stereo) , thanks.
0.017

----------
- System: MCF 7 cells
- protocol-text: MCF 7 cell growth inhibition test
- Type: cell-based
- particulars: Homo sapiens, MCF7; MCF-7 cells, contact for 72 hours; read-out: cell growth inhibitory activity IC50, MCF-7
Readings of IC50 for the listed compounds
Dear colleague, please return just the value in µg/mL, with no unit written.

Field: example entries. Status: answers known.
compound	outcome-measure	output-unit	value
CC12OC(CC1(O)C=NNC(=N)N)n1c3ccccc3c3c4c(c5c6ccccc6n2c5c31)CNC4=O (stereo not drawn)	IC50	µg/mL	0.4
CC12OC(CC1(O)CNC(=O)C1CCCN1)n1c3ccccc3c3c4c(c5c6ccccc6n2c5c31)CNC4=O (stereo not drawn)	IC50	µg/mL	0.27

I am curious: what IC50 value has been reported for C[C@]12O[C@H](C[C@]1(O)CO)n1c3ccc(Br)cc3c3c4c(c5c6ccccc6n2c5c31)CNC4=O (relative stereo) ?
0.19

Queued: CC12OC(CC1(O)CNC(=O)CN)n1c3ccccc3c3c4c(c5c6ccccc6n2c5c31)CNC4=O (stereo not drawn)
0.24

Can you handle COC(=O)[C@@]1(O)C[C@H]2O[C@]1(C)n1c3ccccc3c3c4c(c5c6cc(N)ccc6n2c5c31)C(=O)NC4 (relative stereo) next?
0.13

Now this one: CC12OC(CC13CN(CC=NNC(=N)N)C(=O)O3)n1c3ccccc3c3c4c(c5c6ccccc6n2c5c31)CNC4=O (stereo not drawn)
0.45

Same for CC12OC(CC1(O)CN)n1c3ccccc3c3c4c(c5c6ccccc6n2c5c31)C(=O)N(N)C4=O (stereo not drawn)
1

Same lookup for CN(C)C=NC[C@@]1(O)C[C@H]2O[C@]1(C)n1c3ccccc3c3c4c(c5c6ccccc6n2c5c31)C(=O)NC4 (relative stereo) , please.
0.26

Another: CC12OC(CC1(O)C(=O)NO)n1c3ccccc3c3c4c(c5c6ccccc6n2c5c31)C(=O)NC4=O (stereo not drawn)
0.62

Entry to check: CC12OC(CC13CO3)n1c3ccccc3c3c4c(c5c6ccccc6n2c5c31)CNC4=O (stereo not drawn)
0.52

Entry to check: CC12OC(CC1(O)CO)n1c3ccccc3c3c4c(c5c6ccccc6n2c5c31)C(=O)N(N)C4=O (stereo not drawn)
0.2

Try the compound CC12OC(CC1(O)CNCC(O)CO)n1c3ccccc3c3c4c(c5c6ccccc6n2c5c31)CNC4=O (stereo not drawn)
0.52

For COC(=O)[C@@]1(O)C[C@H]2O[C@]1(C)n1c3ccc(O)cc3c3c4c(c5c6cc(O)ccc6n2c5c31)C(=O)NC4 (relative stereo) then?
0.84

Proceed to CC12OC(CC13COC(=S)O3)n1c3ccccc3c3c4c(c5c6ccccc6n2c5c31)CNC4=O (stereo not drawn)
1

Again, but for Cc1ccc2c(c1)c1c3c(c4c5ccccc5n5c4c1n2[C@H]1C[C@](O)(CO)[C@]5(C)O1)CNC3=O (relative stereo)
0.26

Entry CC12OC(CC13CNC(=O)O3)n1c3ccccc3c3c4c(c5c6ccccc6n2c5c31)CNC4=O (stereo not drawn) please
0.15

Query CN1CC2(CC3OC2(C)n2c4ccccc4c4c5c(c6c7ccccc7n3c6c42)C(=O)NC5)OC1=O (stereo not drawn) next
1

Same question for C[C@]12O[C@H](C[C@]1(O)COC1CCCCO1)n1c3ccccc3c3c4c(c5c6ccccc6n2c5c31)CNC4=O (stereo partly drawn) please.
1

Try this compound too: CN(C)CCN1C(=O)c2c(c3c4ccccc4n4c3c3c2c2ccccc2n3C2CC(O)(CO)C4(C)O2)C1=O (stereo not drawn)
0.45

Likewise for COC(=O)[C@@]1(O)C[C@H]2O[C@]1(C)n1c3ccccc3c3c4c(c5c6cc(N(C)C)ccc6n2c5c31)C(=O)NC4 (relative stereo) ?
0.36

----------
- Tested on: PC-10 cells
- protocol-text: PC-10 cell growth inhibition test
- Format: cell-based
- particulars: Homo sapiens, PC10; PC-10 cells, contact for 72 hours; read-out: cell growth inhibitory activity IC50, PC-10
Measured IC50 of individual entries
Form entry: value (mg/L) — number only.

compound	target-entity	value
CC12OC(CC13COS(=O)O3)n1c3ccccc3c3c4c(c5c6ccccc6n2c5c31)CNC4=O (stereo not drawn) [Compound 55]	PC-10 cells	0.64
C[C@]12O[C@H](C[C@]1(O)C(N)=O)n1c3ccccc3c3c4c(c5c6ccccc6n2c5c31)CNC4=O (relative stereo) [Compound 2]	PC-10 cells	0.03
C[C@]12O[C@H](C[C@]1(O)CN=[N+]=[N-])n1c3ccccc3c3c4c(c5c6ccccc6n2c5c31)CNC4=O (relative stereo) [Compound 29]	PC-10 cells	0.71
CC12OC(CC13COC(=S)O3)n1c3ccccc3c3c4c(c5c6ccccc6n2c5c31)CNC4=O (stereo not drawn) [Compound 54]	PC-10 cells	0.11

Here is the next item to consider.
Which value of IC50 has been reported for C[C@]12O[C@H](C[C@]1(O)C(=O)NCCO)n1c3ccccc3c3c4c(c5c6ccccc6n2c5c31)CNC4=O (relative stereo) [Compound 3] in the records?
0.68

----------
# key: entry, value: C-Kinase inhibitory activity IC50
- target-entity: C-kinase (protein kinase C)
- protocol-text: C-Kinase inhibitory activity test
- Format: biochemical
- particulars: enzyme activity inhibited 50%
Form entry: value (µg/mL) — number only.

What reported C-Kinase inhibitory activity IC50 corresponds to COC(=O)[C@@]1(O)C[C@H]2O[C@]1(C)n1c3ccccc3c3c4c(c5c6ccccc6n2c5c31)C(=O)N(Cl)C4 (relative stereo) on C-kinase (protein kinase C)?
0.034

Another compound to check: CC12OC(CC13CN(CC=NNC(=N)N)C(=O)O3)n1c3ccccc3c3c4c(c5c6ccccc6n2c5c31)CNC4=O (stereo not shown)
0.053

Could you do the same for C[C@]12O[C@H](C[C@]1(O)CNCC(=O)O)n1c3ccccc3c3c4c(c5c6ccccc6n2c5c31)CNC4=O (relative stereo) , please?
0.01

Please do the same for CC12OC(CC1(O)C=NO)n1c3ccccc3c3c4c(c5c6ccccc6n2c5c31)CNC4=O (stereo not shown) as well.
0.013

Same question, CCOC(=O)[C@@]1(O)C[C@H]2O[C@]1(C)n1c3ccccc3c3c4c(c5c6ccccc6n2c5c31)C(=O)NC4 (relative stereo) this time
0.13

Try this compound too: C[C@]12O[C@H](C[C@]1(O)CO)n1c3ccccc3c3c4c(c5c6ccccc6n2c5c31)CNC4=O (relative stereo)
0.02

Consider next the compound CC12OC(CC1(O)CN1CCOCC1)n1c3ccccc3c3c4c(c5c6ccccc6n2c5c31)CNC4=O (stereo not shown) in the same way.
0.10

----------
- target-entity: C-kinase (protein kinase C)
- protocol-text: C-Kinase inhibitory activity test
- Assay type: biochemical
- particulars: enzyme activity inhibited 50%
outcome-measure: C-Kinase inhibitory activity IC50 (µg/mL)
The reply should be a number in µg/mL, with the unit left off.

// solved cases for C-Kinase inhibitory activity IC50 follow
molecule	outcome-measure	value
CC12OC(CC13COC(=S)O3)n1c3ccccc3c3c4c(c5c6ccccc6n2c5c31)CNC4=O (stereo not shown) [Compound 54]	C-Kinase inhibitory activity IC50	0.015
CC1=NCC2(CC3OC2(C)n2c4ccccc4c4c5c(c6c7ccccc7n3c6c42)C(=O)NC5)O1 (stereo not shown) [Compound 56]	C-Kinase inhibitory activity IC50	0.006
CN1CC2(CC3OC2(C)n2c4ccccc4c4c5c(c6c7ccccc7n3c6c42)C(=O)NC5)OC1=O (stereo not shown) [Compound 59]	C-Kinase inhibitory activity IC50	0.046
CC12OC(CC13CNC(=O)O3)n1c3ccccc3c3c4c(c5c6ccccc6n2c5c31)CNC4=O (stereo not shown) [Compound 57]	C-Kinase inhibitory activity IC50	0.02

Which C-Kinase inhibitory activity IC50 is reported for this molecule? CC12OC(CC1(O)CO)n1c3ccccc3c3c4c(c5c6ccccc6n2c5c31)C(=O)N(N)C4=O (stereo not shown) [Compound 72]
0.22

How about this molecule: CSCC1(O)CC2OC1(C)n1c3ccccc3c3c4c(c5c6ccccc6n2c5c31)C(=O)NC4 (stereo not shown) [Compound 45]
0.11

And CC12OC(CC1(O)C=NNC(=N)N)n1c3ccccc3c3c4c(c5c6ccccc6n2c5c31)CNC4=O (stereo not shown) [Compound 52] ?
0.021
